Assignment: determine reported binding signal for the given binders.
measurement target: T1, UNK ZnF1-3 (human, UniProt Q9C0B0 31-174)
T1 sequence: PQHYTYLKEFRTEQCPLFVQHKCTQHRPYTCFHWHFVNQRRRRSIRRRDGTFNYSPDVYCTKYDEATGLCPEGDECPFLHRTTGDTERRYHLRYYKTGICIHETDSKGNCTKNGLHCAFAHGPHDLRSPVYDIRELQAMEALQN
test details: nsRBNS (natural sequence RNA bind-n-seq); RBNS binding buffer (assumed for nsRBNS): 25 mM Tris pH 7.5, 150 mM KCl, 3 mM MgCl2, 0.01% Triton X-100, 500 ug/ml BSA, 20 U/ml SUPERase-In, 4 C; UNK is unkempt and MSI1 is Musashi-1; names of the RNAs are library labels; protein concentration not given here; high values mean tight binding
Over roughly 24,000 sequences, “enrichment r” has its median near 0.99; the highest 2% begin near 3.7. The list comes from a sample in which the highest values are over-represented; it also holds close analogues and randomly drawn sequences.
Numbers only here, please. The scale is enrichment R.

[ask] Quick one: binding signal for chr4:88367131:88367132:-_ENSMUSG00000070923_ENSMUST00000094993|mus_mus|FALSE|FALSE (ssRNA) RNA: GGGAGUUCUACAGUCCGACGAUCUUGGUAAUUGCUUGCUUCCAAAAGUAAAUUCACACAGGUAUUGUCUGUUCUCAUGAAAUCUACUGUCUGCACAUAGUUGAUGAGAUCCUGUGGUGUCAUCAGUGGAAAGCGAAUAUUCUUCAACAGAGGAUUGAGCAUCA ?
[reply] 0.859

[ask] And chr4:17845017:17845018:+_ENSG00000109805_ENST00000514176|hu_mus|hu_hu_hu_mus_False|48_108 (ssRNA) RNA: GGGAGUUCUACAGUCCGACGAUCGCUUCCUAACUUAGUAUCUUCAUUAAGGAACUCUGCAAGGUUAAGUUUACUUUUCUGUAGCGCGCGGUUUUGGGCUCGUCUGGGUAAUCUCAUCUUCAUUUCUGAUGGUGGUUCAUGAUCCAACAGAGGAUUGAGCAUCA ?
[reply] 0.472

[ask] Can you check chr5:145543945:145543946:-_ENSG00000133706_ENST00000545646|hu_hu|hu_hu_hu_mus_True|18_98 (ssRNA) RNA: GGGAGUUCUACAGUCCGACGAUCCUGAACGGCCAGUGGCGGGAAAUAAUCAAGCCAGUGCUCUGCUUCAGAAAACUUCACUAUGUCGUCAUCAGAGAGCCCAAGGGAUUUCAUAAUGCCCCACUGGUACUUAGAAGAUCCUGCCAACAGAGGAUUGAGCAUCA next?
[reply] 0.932

[ask] Entry chr12:39756943:39756944:-_ENSG00000139116_ENST00000544797|hu_mus|hu_hu_hu_mus_False|18_98 (ssRNA) RNA: GGGAGUUCUACAGUCCGACGAUCGGUUUGGCUGUUACCCCCGAGGGAAUCCUGCAAGAGUCUUGUCAGCUUAGAGUCUCUGUAAGGGACAUGGGUGGCUCUCUUGCUCUUGUCCCCCAAGGCACUUAUUACAUUCCCAAGAGCCAACAGAGGAUUGAGCAUCA please
[reply] 0.694

[ask] Can you handle chr4:76721835:76721836:+_ENSG00000138768_ENST00000264904|hu_mus|hu_hu_hu_mus_True|98_108 (ssRNA) RNA: GGGAGUUCUACAGUCCGACGAUCGUUGGCUGGGGUUUCUGAGAUGCCUCUGGAAUAUAACUCAUGUUUGCUAAUAAAUCCUAGUUUCUCUAUGAAAUUCUCUUUGCCAAUCCUCUUCUCUAUUAGUUGCUUUAGUUUCUCUUUCAACAGAGGAUUGAGCAUCA next?
[reply] 0.409

[ask] Field entry: chr2:217001844:217001845:+_ENSG00000079246_ENST00000392132|hu_hu|FALSE|FALSE (ssRNA) RNA: GGGAGUUCUACAGUCCGACGAUCGCCGACUUGAGGAUUAGCUCUUUUGUCAUAAGCAUAUCGAACUAUGGCCACCAUGUCUAAGUCAUCCAAAGCAUGAAUCAGGGAGGAAAGUGCAACUGCAGCUGCCUCAUCAUCUCUUGCCAACAGAGGAUUGAGCAUCA
[reply] 1.53

[ask] Repeat with chr9:49312907:49312908:-_ENSMUSG00000039542_ENSMUST00000166811|mus_hu|motif|central (ssRNA) RNA: GGGAGUUCUACAGUCCGACGAUCAGCUGCAAUUUGGCAUUCGUCCUAUAAAAUAAGAGUCUACGUGGGAAUUGAAUUCAGCGGGAAAGGGUGACACACUUUGCAUACUGAACAAAUACAAAGUGAACAGAAAUUAUAACUUAUCAACAGAGGAUUGAGCAUCA
[reply] 3.41
